Hey, just so you know, these numbers are from paper PMC6010079.

Readings of EC50 for the listed compounds
System: DENV-2
methodDescription: Anti-DENV RNA activity: RT-qPCR of DENV RNA in DENV-2-infected Huh-7 cells
Assay type: cell-based, DENV-2 (DENV type-2 strain 16681)
details: Huh-7 cells infected with DENV-2 at MOI 0.2, 3 days treatment, qRT-PCR with primers targeting NS5, normalised to GAPDH; read-out: EC50 ± SD (DENV-2 RNA)
Experimental: Huh-7 cells were seeded in 24-well plate and infected DENV at an MOI of 0.2 for 2 h and followed by test compound treatment at concentration of 0, 1, 5, 10, 25, 50 and 100 µM for 3 days. […] DENV RNA and cellular mRNA levels were determined by quantitative real-time reverse-transcription polymerase chain reaction (RT-qPCR) with specific primers. […] The EC50 values were calculated from non-linear regression curve fitting using GraphPad Prism7 software (San Diego, CA, USA). […]

smilesCode: CCOC(=O)c1cnn(C)c1NS(=O)(=O)c1ccc(-n2cccc2C(=O)c2ccccc2)cc1
EC50: 7.6 µM

smilesCode: CCOC(=O)c1cnn(-c2ccccc2)c1N(S(=O)(=O)c1ccc([N+](=O)[O-])cc1)S(=O)(=O)c1ccc([N+](=O)[O-])cc1
EC50: 5.7 µM

###

methodDescription: Cell cytotoxicity assay (MTS)
Format: cell-based
details: human, Huh-7 cells, 3 days incubation, read-out: CC50 (half maximal cytotoxicity concentration)

smilesCode: CCOC(=O)c1cnn(-c2ccccc2)c1N(S(=O)(=O)c1ccc([N+](=O)[O-])cc1)S(=O)(=O)c1ccc([N+](=O)[O-])cc1
CC50 at 3 days: > 200 µM

smilesCode: CCOC(=O)c1cnn(C)c1NS(=O)(=O)c1ccc(-n2cccc2C(=O)c2ccccc2)cc1
CC50 at 3 days: > 200 µM

smilesCode: COC(=O)c1[nH]c2ccc(Cl)cc2c1Cc1cc(OC)cc(OC)c1
CC50 at 3 days: > 200 µM

smilesCode: COC(=O)c1[nH]c2ccc(Cl)cc2c1C(=O)c1cc(OC)c(O)c(OC)c1
CC50 at 3 days: 181 µM

smilesCode: CCOC(=O)c1cnn(C)c1N(S(=O)(=O)c1ccc(Cl)cc1)S(=O)(=O)c1ccc(Cl)cc1
CC50 at 3 days: 196 µM

###

Test system: DENV-2
methodDescription: Anti-DENV RNA activity: RT-qPCR of DENV RNA in DENV-2-infected Huh-7 cells
Format: cell-based, DENV-2 (DENV type-2 strain 16681)
details: read-out: EC50 ± SD (DENV-2 RNA); Huh-7 cells infected with DENV-2 at MOI 0.2, 3 days treatment, qRT-PCR with primers targeting NS5, normalised to GAPDH
pEC50: −log10 of the molar value.
Readings of pEC50 for the listed compounds
assayMetric: pEC50

smilesCode: COC(=O)c1[nH]c2ccc(Cl)cc2c1Cc1cc(OC)cc(OC)c1
measuredTarget: DENV-2
assayMetric: pEC50
measuredNumber: 5.14

smilesCode: CCOC(=O)c1cnn(C)c1N(S(=O)(=O)c1ccc(Cl)cc1)S(=O)(=O)c1ccc(Cl)cc1
measuredTarget: DENV-2
assayMetric: pEC50
measuredNumber: 4.93
